- Test system: HT-29
- assayExplanation: NCI tumour cell line growth inhibition, 48 h
Activity calls are given as the source filed them. Cut-off read from the data, not from the text of the source: active = GI50 up to about 1.1 µM and inactive = higher.

{"compound": "Cc1c2cnccc2c(C)c2c1c1ccccc1n2CC1CO1 (centres undefined)", "GI50": "1.72 µM (inactive)"}
{"compound": "CN1CCN(c2ccncc2S(=O)(=O)N2CCN(C)CC2)CC1", "GI50": "> 100 µM (inactive)"}
{"compound": "O=C(NCCN1CCCCC1)c1ccc(I)cc1", "GI50": "39.5 µM (inactive)"}
{"compound": "O=C(CSc1nnc(-c2ccccn2)s1)N/N=C/c1ccccc1", "GI50": "> 100 µM (inactive)"}

----------
The following compounds are listed with their measured GI50 values.
- Test system: SN12C
- assayExplanation: NCI tumour cell line growth inhibition, 48 h
Calls of active or inactive are those of the source. No stated cut-off is given here; in the data, active = GI50 up to about 1.1 µM and inactive = higher.

{"compound": "COc1ccc(S(=O)(=O)N(CC(=O)O)c2ccccc2)cc1", "GI50": "> 100 µM (inactive)"}
{"compound": "CCOC(=O)Oc1cc2ccsc2c2c1c1ccccc1n2C(=O)OCC", "GI50": "37.8 µM (inactive)"}
{"compound": "CSc1nc2c(c(N3CCOCC3)n1)C(O)n1c(nc3ccccc31)S2 (stereo not given)", "GI50": "77.8 µM (inactive)"}
{"compound": "Cc1cc(=O)oc2c(CN3CCCCC3)c(O)ccc12", "GI50": "> 100 µM (inactive)"}
{"compound": "CCOC(=O)C(C(=O)c1ccccc1)=C1NCCN1", "GI50": "> 100 µM (inactive)"}
{"compound": "N=C(N)NS(=O)(=O)c1ccc(NNC(=O)c2cccc3c(O)c4ccccc4nc23)cc1", "GI50": "33.8 µM (inactive)"}
{"compound": "COC(=O)/C(=N\\NC(N)=O)C(C(=O)C(=O)Nc1ccccc1C(=O)OC)c1nc2ccc(C(=O)c3ccccc3)cc2nc1O (stereo not given)", "GI50": "> 100 µM (inactive)"}
{"compound": "CC1(C)C(=O)C(C)(C)C1=NN", "GI50": "> 100 µM (inactive)"}
{"compound": "NC(CCCCNC(=O)OCc1ccccc1)C(=O)NC(CCCCNC(=O)OCc1ccccc1)C(=O)ON1C(=O)CCC1=O (stereo not given)", "GI50": "> 100 µM (inactive)"}
{"compound": "COc1ccc2c(c1OC)C[C@@H]1c3c(cc4c(c3-2)OCO4)CCN1C", "GI50": "42 µM (inactive)"}

----------
- Test system: MDA-N
- assayExplanation: NCI tumour cell line growth inhibition, 48 h
Calls of active or inactive are those of the source. Rule as the data show it: active = GI50 up to about 1.1 µM and inactive = higher. Where a SMILES comes first, the peptide text is derived from it. The star is where a group is joined. Boc = CC(C)(C)OC(=O)*

{"molecule": "Cc1cc(=O)oc2c(OS(C)(=O)=O)c(OS(C)(=O)=O)ccc12", "GI50": "> 100 µM (inactive)"}
{"molecule": "Cc1c(/C=N/NC(=S)N2CCCCC2)c(=O)n(-c2ccccc2)n1C", "GI50": "> 100 µM (inactive)"}
{"molecule": "O=C(O)[C@@H]1C[C@@H](O)CN1", "GI50": "> 100 µM (inactive)"}
{"molecule": "CC[C@H](C)c1occ2c(O)c(C(=O)O)c(=O)cc-2c1C", "GI50": "24 µM (inactive)"}
{"molecule": "CC(C)(C)OC(=O)NC(Cc1ccccc1)C(=O)N1CCCC1C(N)=O (stereo not drawn) (Boc-Phe-Pro-NH2; configuration not given here)", "GI50": "> 100 µM (inactive)"}
{"molecule": "Cc1cc2c(cc1C(=O)c1ccc(N)cc1)OCO2", "GI50": "12.4 µM (inactive)"}
{"molecule": "Cc1cnc(Cl)nc1C(C#N)c1nc2ccccc2s1 (configuration not stated)", "GI50": "15 µM (inactive)"}
{"molecule": "C=CCNC1=C2C[C@@H](C)C[C@@H](OC)[C@@H](OC(=O)CCCN)[C@H](C)/C=C(\\C)[C@@H](OC(N)=O)[C@H](OC)/C=C\\C=C(/C)C(=O)NC(=CC1=O)C2=O", "GI50": "12.6 µM (inactive)"}
{"molecule": "Cc1c2ccccc2c(C2C3C(=O)N(c4cccc5ccccc45)C(=O)C3ON2Cc2ccc(CC(N)=O)cc2)c2ccccc12 (configuration not stated)", "GI50": "11.5 µM (inactive)"}
{"molecule": "CCC1c2[nH]c3ccccc3c2C[C@H]2C(=O)NC(Cc3c[nH]c4ccccc34)C(=O)N12 (some centres not stated)", "GI50": "24.2 µM (inactive)"}
{"molecule": "O=C1C(NCCO)=C(N2CC2)C(=O)C(NCCO)=C1N1CC1", "GI50": "> 60.4 µM (inactive)"}
{"molecule": "CC1C2CC(CC2O)C1(C)C (configuration not stated)", "GI50": "> 100 µM (inactive)"}

----------
- Tested on: U-251
- assayExplanation: NCI tumour cell line growth inhibition, 48 h
Activity calls are given as the source filed them. Rule as the data show it: active = GI50 up to about 1.1 µM and inactive = higher.
Classes used: yes = active, no = inactive

{"molecule": "COc1cc(Br)c(CC2=NCCc3cc(OC)c(OC)cc32)cc1OC", "categoryLabel": "no"}
{"molecule": "Nc1nc2cc(CNc3ccc(C(=O)NC(CCC(=O)O)C(=O)O)cc3)ccc2nc1-c1ccccc1 (centres undefined)", "categoryLabel": "no"}
{"molecule": "CCOC(=O)c1cc(-c2ccc(Cl)cc2)c([N+](=O)[O-])n1C", "categoryLabel": "no"}
{"molecule": "COc1ccc2c(c1OC)C[C@@H]1c3c(cc4c(c3-2)OCO4)CCN1C", "categoryLabel": "no"}
{"molecule": "O=C(O)CCCc1ccc2c(c1)CC1(C2)Cc2cc3c(cc2C1)CCCC3", "categoryLabel": "no"}
{"molecule": "Cc1ccc(NC(=O)CC/C(CC(=O)c2ccc(Cl)cc2)=N\\NC(=O)C(=O)NN)cc1C", "categoryLabel": "no"}
{"molecule": "CC1(C)C(=O)C(C)(C)C1=NN", "categoryLabel": "no"}
{"molecule": "CC1(O)CCC2(C)C(=O)C1(C)CCC21OCCO1 (centres undefined)", "categoryLabel": "no"}
{"molecule": "CCOC(=O)Oc1cc2ccsc2c2c1c1ccccc1n2C(=O)OCC", "categoryLabel": "no"}
{"molecule": "Cc1ccc(S(=O)(=O)Nc2cccc3c(=O)nc[nH]c23)cc1", "categoryLabel": "no"}
{"molecule": "CC(=O)c1ccc2c(ccc(=O)n2C)c1", "categoryLabel": "no"}
{"molecule": "COc1ccc(Cc2nn(C3OC(COC(C)=O)C(OC(C)=O)C(OC(C)=O)C3OC(C)=O)c(=S)n(-c3ccc(OC)cc3)c2=O)cc1 (centres undefined)", "categoryLabel": "no"}
{"molecule": "CCCCCCCCCCNC(=S)OCCCC", "categoryLabel": "no"}
{"molecule": "CC1=[N+](C)CCCN1C", "categoryLabel": "no"}
{"molecule": "Cc1cc(=O)oc2c(CN3CCCCC3)c(O)ccc12", "categoryLabel": "no"}
{"molecule": "Cc1ccnc(NS(=O)(=O)c2ccc(NC3=CC(=O)C(=O)c4ccccc43)cc2)n1", "categoryLabel": "no"}
{"molecule": "CN(C)/C(N)=N\\C#N", "categoryLabel": "no"}
{"molecule": "O=c1c(O)cccn1C1OC(CO)C(O)C1O (centres undefined)", "categoryLabel": "no"}
{"molecule": "COS(=O)(=O)OCCC(NC(=O)OCc1ccccc1)C(=O)OCc1ccccc1 (centres undefined)", "categoryLabel": "no"}
{"molecule": "CC(=O)NNc1nc(C)c(C(=O)NNC(=O)C(=O)Nc2ccccc2C#N)s1", "categoryLabel": "no"}
{"molecule": "NC1=NN(c2ccccc2)C(=O)C1/C(=N\\NC(=O)c1cc2ccccc2cc1O)C(=O)Nc1cccc(C(F)(F)F)c1 (centres undefined)", "categoryLabel": "no"}
{"molecule": "CC(Cc1ccccc1)Nc1ncnc2c1ncn2C1OC(CO)CC1O (centres undefined)", "categoryLabel": "no"}
{"molecule": "CCOC1CC(C)N(C(=O)c2ccccc2)O1 (centres undefined)", "categoryLabel": "no"}
{"molecule": "CC1OC1P(=O)(O)O (centres undefined)", "categoryLabel": "no"}
{"molecule": "Nc1c(C(=O)O)c2ccc([N+](=O)[O-])cc2c(=O)n1-c1nc2ccccc2s1", "categoryLabel": "no"}
{"molecule": "Cc1cc2nc(N)n[n+]([O-])c2cc1C", "categoryLabel": "no"}
{"molecule": "C=CCn1c2c(c3ccccc3c1=O)C(=O)c1ccccc1-2", "categoryLabel": "no"}
{"molecule": "COC(=O)/C(=N\\NC(N)=O)C(C(=O)C(=O)Nc1ccccc1C(=O)OC)c1nc2ccc(C(=O)c3ccccc3)cc2nc1O (centres undefined)", "categoryLabel": "no"}
{"molecule": "CCN(CC)c1ccc(NC(=S)NN(C)C)cc1", "categoryLabel": "no"}
{"molecule": "CCCCCCCCCCCCCCCc1nnc(SCC(=O)O)[nH]1", "categoryLabel": "no"}
{"molecule": "CCOC(=O)c1nc2ccccc2nc1NCc1ccc(OC)cc1", "categoryLabel": "no"}
{"molecule": "O=C1C(Cl)=C(Sc2nnc3c4ccccc4c4ccccc4c3n2)C(=O)c2ccccc21", "categoryLabel": "no"}
{"molecule": "CS(=O)(=O)c1nc(-c2cc3c(c(S(C)(=O)=O)n2)CCCC3)cc2c1CCCC2", "categoryLabel": "no"}
{"molecule": "COc1cccc2c1C(=O)C1=C(C2=O)C(O)CC(C)(C)O1 (centres undefined)", "categoryLabel": "no"}
{"molecule": "CCN1N=CSC12C(=O)N(c1ccccc1)C(=O)N2c1ccccc1 (centres undefined)", "categoryLabel": "no"}
{"molecule": "CSC1=N[C@H](c2ccccc2)CS1", "categoryLabel": "no"}
{"molecule": "C[Si](C)(C)OC1(C#N)C2C3CC4C2C(=O)C2C4C3C21 (centres undefined)", "categoryLabel": "no"}
{"molecule": "O=C1NC(=S)NC(=O)C1C(c1ccc([N+](=O)[O-])cc1)C1C(=O)NC(=S)NC1=O.c1ccncc1", "categoryLabel": "no"}
{"molecule": "CCOC(=O)c1c(-c2ccccc2)nc2ccccc2c1O", "categoryLabel": "no"}
{"molecule": "CC(C)CCC[C@@H](C)C1CCC2[C@@H]3CC=C4C[C@@H](C(=O)NCCN(C)C)CC[C@]4(C)C3CC[C@@]21C (some centres undefined)", "categoryLabel": "no"}
{"molecule": "C(=C\\c1ccc(-c2cn3cc(/C=C/C=N/NC4=NCCN4)ccc3n2)cc1)/C=N/NC1=NCCN1", "categoryLabel": "yes"}
{"molecule": "Cc1nc2ccccc2c(=O)n1Nc1ccc(C(=O)O)cc1", "categoryLabel": "no"}
{"molecule": "Cc1cc2nc3c(C(OC4OC(CO)C(O)C(O)C4O)C(O)CO)nn(-c4ccccc4)c3nc2cc1C (centres undefined)", "categoryLabel": "no"}
{"molecule": "CC(C)C(=O)/C=C/c1ccc(Cl)cc1", "categoryLabel": "no"}
